experiment: clinical; details: human, in vivo, po, 1200 mg
Measured attribute: half-life
# number then unit; no other words

Please fill in: half-life reported for "c1cn2cc(-c3ccc4cn[nH]c4c3)nc(Nc3ccc(N4CCOCC4)cc3)c2n1" = 9.59 h

====

test: clinical; settings: human, in vivo, po, 1200 mg
Measured attribute: Tmax (h)
Enter your answer as a number in h; do not include the unit.

Please fill in: Tmax reported for "c1cn2cc(-c3ccc4cn[nH]c4c3)nc(Nc3ccc(N4CCOCC4)cc3)c2n1" = 3.25

====

experiment: clinical; details: human, in vivo, po, 200 mg, t max, Day 7 (steady state), 200 mg twice daily oral, fasted; median (interquartile range)
Measured attribute: Tmax
# number then unit; no other words

Please fill in: Tmax reported for "c1cn2cc(-c3ccc4cn[nH]c4c3)nc(Nc3ccc(N4CCOCC4)cc3)c2n1" = 2.27 h

====

experiment: clinical; conditions: human, in vivo, po, 25 mg
Measured attribute: half-life (min)
Enter your answer as a number in min; do not include the unit.

Please fill in: half-life reported for c1cn2cc(-c3ccc4cn[nH]c4c3)nc(Nc3ccc(N4CCOCC4)cc3)c2n1 [entospletinib, Entospletinib] = 406

====

assay: clinical; conditions: human, in vivo, po, 1200 mg
Measured attribute: Cmax (ng/mL)
Enter your answer as a number in ng/mL; do not include the unit.

Please fill in: Cmax reported for "c1cn2cc(-c3ccc4cn[nH]c4c3)nc(Nc3ccc(N4CCOCC4)cc3)c2n1" = 1060

====

assay: clinical; settings: human, in vivo, po, 75 mg
Measured attribute: half-life (h)
Enter your answer as a number in h; do not include the unit.

Please fill in: half-life reported for "c1cn2cc(-c3ccc4cn[nH]c4c3)nc(Nc3ccc(N4CCOCC4)cc3)c2n1" = 5.31

====

assay: Aqueous solubility of mono-mesylate salt; assay type: physicochemical; settings: aqueous medium
Measured attribute: solubility

Please fill in: solubility reported for c1cn2cc(-c3ccc4cn[nH]c4c3)nc(Nc3ccc(N4CCOCC4)cc3)c2n1 [entospletinib, Entospletinib] = < 1 µg/mL

====

test: clinical; details: human, in vivo, po, 600 mg
Measured attribute: Cmax

Please fill in: Cmax reported for "c1cn2cc(-c3ccc4cn[nH]c4c3)nc(Nc3ccc(N4CCOCC4)cc3)c2n1" = 779 ng/mL

====

test: clinical; details: human, in vivo, po, 200 mg
Measured attribute: half-life (h)
Enter your answer as a number in h; do not include the unit.

Please fill in: half-life reported for "c1cn2cc(-c3ccc4cn[nH]c4c3)nc(Nc3ccc(N4CCOCC4)cc3)c2n1" = 9.51

====

experiment: clinical; details: human, in vivo, po, 1200 mg, t max, Day 7 (steady state), 1200 mg twice daily oral, fasted; median (interquartile range)
Measured attribute: Tmax (h)
Enter your answer as a number in h; do not include the unit.

Please fill in: Tmax reported for "c1cn2cc(-c3ccc4cn[nH]c4c3)nc(Nc3ccc(N4CCOCC4)cc3)c2n1" = 2.75

====

assay: clinical; conditions: human, in vivo, po, 200 mg
Measured attribute: Cmax (ng/mL)
Enter your answer as a number in ng/mL; do not include the unit.

Please fill in: Cmax reported for "c1cn2cc(-c3ccc4cn[nH]c4c3)nc(Nc3ccc(N4CCOCC4)cc3)c2n1" = 534
